Tested on: L. infantum (MHOM/MA/67/ITMAP-263) wild-type strain (WT) promastigotes
Format: cell-based, Leishmania infantum
COND: promastigotes, 72 h, 25 °C; 95% confidence interval in brackets (n = 3); read-out: Ldi WT EC50
Where a SMILES comes first, the peptide text is derived from it. [ ]: non-standard residue; d: D form. The star is where a group is joined. NMeF = CN[C@@H](Cc1ccccc1)C(=O)O; NMeV = CN[C@H](C(=O)O)C(C)C; Hept6ynoyl = C#CCCCCC(=O)*; NMeA = CN[C@@H](C)C(=O)O; NH(CH2)6NH2 = NCCCCCCN*
As shown below, each of these compounds has a reported EC50 value.
Number only, in µM; omit the unit.

Known results for compounds:
# COMPOUND, EC50 [µM]
rows = [
    ("C#CCCCCC(=O)N(C)[C@H](C(=O)N(C)[C@H]1CCN([C@H](C(=O)N(C)[C@@H](C)C(=O)N(C)[C@@H](Cc2ccccc2)C(=O)O)C(C)C)C1=O)C(C)C [peptide 27]", 284),
    ("C#CCCCCC(=O)N(C)[C@H](C(=O)N(C)[C@H](C(=O)N(C)[C@H](C(=O)N(C)[C@@H](C)C(=O)N(C)[C@@H](Cc1ccccc1)C(=O)NCCCCCCN)C(C)C)C(C)C)C(C)C [peptide 17] (Hept6ynoyl-[NMeV][NMeV][NMeV][NMeA][NMeF]-{NH(CH2)6NH2})", 48.4),
]

Then this compound:
Would you kindly share the measured EC50 for C#CCCCCC(=O)N(C)[C@H](C(=O)N(C)[C@H](C(=O)N(C)[C@H](C(=O)N(C)[C@@H](C)C(=O)N(C)[C@@H](Cc1ccccc1)C(=O)O)C(C)C)C(C)C)C(C)C [peptide 12] (Hept6ynoyl-[NMeV][NMeV][NMeV][NMeA][NMeF]-OH) ? 68.3
